Test system: MDA-MB-231
Test: NCI tumour cell line growth inhibition, 48 h
Active and inactive are the calls of the source. Rule as the data show it: active = GI50 up to about 1.1 µM and inactive = higher.
Outcome (select one): active, inactive

Data request: What was the test verdict on CCCCCCCCCCCCCCCCCCNc1ccn(C2OC(COP(=O)(O)OCC3OC(n4cc(C)c(=O)[nH]c4=O)CC3N=[N+]=[N-])C(O)C2O)c(=O)n1 (centres undefined) ?
Data returned: inactive

Data request: What was the test verdict on C[N+](C)([O-])Cc1cc(-c2ccccc2)ccc1O ?
Data returned: inactive

Data request: What was the test verdict on COc1ccc(C(C)NNC(=O)c2cc[n+]([BH2-]C#N)cc2)cc1OC (centres undefined) ?
Data returned: inactive

Data request: What was the test verdict on CN1CCN(C(=S)N(C(=O)c2ccc(Cl)cc2)c2ccccc2)CC1 ?
Data returned: inactive

Data request: What was the test verdict on COC1(C)/C=N/CC(C)(C)NC(=O)C(C)(OC)/C=N/CC(C)(C)NC1=O (centres undefined) ?
Data returned: inactive

Data request: What was the test verdict on CCOC(=O)/C=C(/OCC)[C@@H]1C(C(=O)c2ccc(Cl)cc2)[C@@H]1/C(=C\C(=O)OCC)OCC (some centres undefined) ?
Data returned: inactive

Data request: What was the test verdict on CCOc1ccccc1/N=N/C1C(=O)N(C(=O)CC(=O)Nc2ccccc2C)N=C1C (centres undefined) ?
Data returned: inactive

Data request: What was the test verdict on NC(=S)N/N=C1/CCCC2CCCC[C@@H]12 (some centres undefined) ?
Data returned: inactive

Data request: What was the test verdict on COc1cccc(/C=C/C(=O)N2CC(CCl)c3c2cc(N)c2ccccc32)c1 (centres undefined) ?
Data returned: active

---

Tested on: NCI-H226
Test: NCI tumour cell line growth inhibition, 48 h
The source made the active and inactive calls. Rule as the data show it: active = GI50 up to about 1.1 µM and inactive = higher.
Outcome (select one): active, inactive

Example entries begin here.
# molecule, assigned_category
rows = [
    ("CCC1(O)CC(OC2CC(N(C)C)C(OC3CC(O)C(OC4CCC(=O)C(C)O4)C(C)O3)C(C)O2)c2c(O)c3c(c(O)c2C1C(=O)OC)C(=O)c1cccc(O)c1C3=O (stereo not given)", "active"),
    ("CCC1(O)C(=O)OCc2c1cc1n(c2=O)Cc2cc3cc4c(cc3nc2-1)OCO4 (stereo not given)", "active"),
    ("Cc1c(C(=O)/C=C/c2ccc([N+](=O)[O-])cc2)[n+]([O-])c2ccccc2[n+]1[O-]", "inactive"),
    ("Cc1ccc(/C=N/NS(=O)(=O)c2ccc(/C=C3\\NC(=O)NC3=O)cc2)cc1", "inactive"),
]

# ---- query molecule ----
Data request: What was the test verdict on C=CC1CCC[N+]1(CC(=O)OCC)Cc1ccccc1 (stereo not given) ?
Data returned: inactive

---

Test system: HCC 2998
Test: NCI tumour cell line growth inhibition, 48 h
The source made the active and inactive calls. No stated cut-off is given here; in the data, active = GI50 up to about 1.1 µM and inactive = higher.
assay_endpoint: GI50

These solved cases illustrate the format of a correct answer.
# molecule, measurement
rows = [
    ("COc1cc2nc(-c3cccs3)nc(N3C(c4ccc(O)cc4)=NNC(=O)c4ccccc43)c2cc1OC", "18.6 µM (inactive)"),
    ("C/C(=N/NC(=S)Nc1ccc(Cl)cc1)c1cccc(/C(C)=N\\NC(=S)Nc2ccc(Cl)cc2)n1", "12.2 µM (inactive)"),
    ("C1=C\\SS/C=C\\SS/C=C\\SS/C=C\\SS/1", "> 100 µM (inactive)"),
    ("CCOC(=O)NN(C(=O)OCC)C(=C(C1=CCCCC1)N1CCOCC1)N(NC(=O)OCC)C(=O)OCC", "> 100 µM (inactive)"),
    ("CCOC(=O)c1c(O)nc(O)c(CC)c1C", "> 100 µM (inactive)"),
]

Data request: Find the measured GI50 of O=C(CCC(=O)Nc1ccc(Cl)c(Cl)c1)Cc1nc2ccccc2o1 and report it.
Data returned: > 100 µM (inactive)

Data request: Find the measured GI50 of O=C(O)C12C3C4C1C1C2C3C1(Br)C41OCCO1 (configuration not stated) and report it.
Data returned: > 100 µM (inactive)

---

Test system: U-251
Assay: NCI tumour cell line growth inhibition, 48 h
Activity calls are given as the source filed them. Rule as the data show it: active = GI50 up to about 1.1 µM and inactive = higher.
Each record here notes measured GI50.

These solved cases illustrate the format of a correct answer.
# compound, GI50
measured = [
    ("Cn1cc2ccccc2c1-c1nc(F)nc(Oc2ccc3c(c2)CC[C@@H]2C3CC[C@]3(C)C(O)CCC23)n1 (stereo not given in full)", "12 µM (inactive)"),
    ("COc1cccc(NC(=O)CSc2nnc(-c3ccc(/N=C\\c4ccc(Cl)cc4)cc3)o2)c1", "17.1 µM (inactive)"),
]

Data request: Find the measured GI50 of COc1ccc2c(c1OCC(=O)O)C(=O)C(CCC(=O)O)CC2 (stereo not given) and report it.
Data returned: > 100 µM (inactive)

Data request: Find the measured GI50 of C=CC1CCC[N+]1(CC(=O)OCC)Cc1ccccc1 (stereo not given) and report it.
Data returned: > 100 µM (inactive)

Data request: Find the measured GI50 of CC1(C=O)CC(CCc2ccccc2)NC1Cc1ccc(O)cc1 (stereo not given) and report it.
Data returned: 13.7 µM (inactive)

---

Test system: TK-10
Experiment: NCI tumour cell line growth inhibition, 48 h
Calls of active or inactive are those of the source. No stated cut-off is given here; in the data, active = GI50 up to about 1.1 µM and inactive = higher. *1 amine or outer side, *2 acyl side, *3 side chain or, on linkers, in order; H or OH if unused. Where a SMILES comes first, the peptide text is derived from it. Bridges are numbered along the chain shown (N, C = ends). Roman numbers before positions name the chains, in order. [ ]: non-standard residue; d: D form. Actinocin(9to1) = Cc1c2oc3c(C)ccc(C(=O)[*:1])c3nc-2c(C(=O)[*:2])c(N)c1=O; NMeV = CN[CH](C(=O)O)C(C)C; Sar = CNCC(=O)O
Outcome (select one): active, inactive

Example entries begin here.
# compound, assigned_category
measured = [
    ("Cc1c2oc3c(C)ccc(C(=O)NC4C(=O)NC(Cc5ccccc5)C(=O)N5CCCC5C(=O)N(C)CC(=O)N(C)C(C(C)C)C(=O)OC4C)c3nc-2c(C(=O)NC2C(=O)NC(Cc3ccccc3)C(=O)N3CCCC3C(=O)N(C)CC(=O)N(C)C(C(C)C)C(=O)OC2C)c(N)c1=O (configuration not stated) (I: TFP[Sar][NMeV] / II: TFP[Sar][NMeV]; ester I:1-I:C, II:1-II:C; linker I:N-II:N via Actinocin(9to1); configuration not given here)", "active"),
    ("COc1ccc2c(c1OCC(=O)O)C(=O)C(CCC(=O)O)CC2 (configuration not stated)", "inactive"),
]

Data request: What was the test verdict on NCCCCNc1ccc2c(=O)[nH][nH]c(=O)c2c1 ?
Data returned: inactive

Data request: What was the test verdict on CCCC[C@H](CCc1ccccc1)N(C(=O)OC)N1CCC[C@H]1COC ?
Data returned: inactive

---

Each record here notes measured GI50.
Test system: OVCAR-3
Assay: NCI tumour cell line growth inhibition, 48 h
Activity calls are given as the source filed them. Rule as the data show it: active = GI50 up to about 1.1 µM and inactive = higher.

These solved cases illustrate the format of a correct answer.
# compound, tested_system, GI50
records = [
    ("CCCCCCCCCC(O)CC(=O)c1c(O)cccc1O (stereo not given)", "OVCAR-3", "21.9 µM (inactive)"),
    ("NC(=S)N/N=C1/CCCC2CCCC[C@@H]12 (stereo not given in full)", "OVCAR-3", "> 100 µM (inactive)"),
    ("CNC(=O)N(C)C(=O)c1ccccc1C(=O)N(C)C(=O)NC", "OVCAR-3", "> 10 µM (inactive)"),
    ("CC1=NN(c2cccc(Cl)c2)C2(SCC(=O)N2c2nc3ccccc3s2)/C1=C\\c1ccccc1O (stereo not given)", "OVCAR-3", "15.8 µM (inactive)"),
    ("CCCOC(=O)c1cc(C(=CCC[C@H]2CC[C@@]3(C)[C@@H](CC[C@@H]4[C@@H]3CC[C@]3(C)[C@@H](C(C)CCCC(C)C)CC[C@@H]43)C2)c2cc(Cl)c(O)c(C(=O)OCCC)c2)cc(Cl)c1O (stereo not given in full)", "OVCAR-3", "> 50 µM (inactive)"),
]

Data request: Find the measured GI50 of COC(=O)/C([Se]c1c(C)cc(C)cc1C)=C(\[Se]c1c(C)cc(C)cc1C)C(=O)OC and report it.
Data returned: > 100 µM (inactive)

Data request: Find the measured GI50 of O=S(=O)(c1ccccc1)n1cc(C[P+](c2ccccc2)(c2ccccc2)c2ccccc2)c2ccccc21 and report it.
Data returned: 2.95 µM (inactive)

Data request: Find the measured GI50 of COc1ccc(C(C)NNC(=O)c2cc[n+]([BH2-]C#N)cc2)cc1OC (stereo not given) and report it.
Data returned: > 100 µM (inactive)

Data request: Find the measured GI50 of OCc1cn(C(c2ccccc2)(c2ccccc2)c2ccccc2)cn1 and report it.
Data returned: > 100 µM (inactive)

Data request: Find the measured GI50 of CC(C)(C)C(=O)Nc1cccc(-c2ccc[nH]2)n1 and report it.
Data returned: > 83.8 µM (inactive)
